Experiment: Cytotoxic activity, MTT method
Type: cell-based
Conditions: human, Huvec-12 normal umbilical vein endothelial cells; Huvec-12 normal cell line; read-out: Cytotoxic activities IC50, Huvec-12
pIC50: −log10 of the molar value.
assay readout: pIC50

>  <molecule>
COc1cccc2c1C(=O)c1c(O)c3c(c(O)c1C2=O)C[C@@](O)(C(=O)CO)C[C@@H]3O[C@H]1C[C@H](N)[C@H](O)[C@H](C)O1 [Compound 23, doxorubicin, reference compound]

>  <observed>
5.20

$$$$

---

Experiment: Cytotoxic activity, MTT method
Type: cell-based
Conditions: human; L02 normal cell line; read-out: Cytotoxic activities IC50, L02
assay readout: IC50 (µM)

>  <molecule>
CC[C@@]1(O[C@H]2C[C@H](N(C)C)[C@H](O)[C@H](C)O2)CCc2c(O)c3c(c(O)c2[C@H]1O[C@H]1C[C@H](N(C)C)[C@H](O[C@H]2C[C@H](O)[C@H](O[C@H]4CC[C@H](O)[C@H](C)O4)[C@H](C)O2)[C@H](C)O1)C(=O)c1cccc(O)c1C3=O [Compound 2, cytorhodin Y]

>  <assay readout>
IC50

>  <observed>
4.46

$$$$
>  <molecule>
CC[C@@]1(O)C[C@H](O[C@H]2C[C@H](N(C)C)[C@@H](O[C@H]3C[C@H](O)[C@@H](O[C@H]4CC[C@H](O)[C@H](C)O4)[C@H](C)O3)[C@H](C)O2)c2c(O)c3c(c(O)c2[C@H]1O[C@H]1C[C@H](N(C)C)[C@@H](O[C@H]2CC[C@H](O[C@H]4CC[C@H](O)[C@H](C)O4)[C@H](C)O2)[C@H](C)O1)C(=O)c1cccc(O)c1C3=O [Compound 6, cosmomycin C]

>  <assay readout>
IC50

>  <observed>
0.1

$$$$
>  <molecule>
CC[C@@]1(O)CCc2c(O)c3c(c(O)c2[C@H]1O[C@H]1C[C@H](N(C)C)[C@H](O)[C@H](C)O1)C(=O)c1cccc(O)c1C3=O [Compound 5, iremycin]

>  <assay readout>
IC50

>  <observed>
6.93

$$$$

---

Test system: HeLa human cervical carcinoma cell line
Assay: Cytotoxic activity, MTT method
Assay type: cell-based
Settings: read-out: Cytotoxic activities IC50, HeLa
pIC50: −log10 of the molar value.

>  <compound>
CC[C@@]1(O)C[C@H](O[C@H]2C[C@H](N(C)C)[C@H](O[C@H]3C[C@H](O)[C@H](O[C@H]4CC[C@H](O)[C@H](C)O4)[C@H](C)O3)[C@H](C)O2)c2c(O)c3c(c(O)c2[C@H]1O[C@H]1C[C@H](N(C)C)[C@H](O[C@H]2C[C@H](O)[C@H](O[C@H]4CC[C@H](O)[C@H](C)O4)[C@H](C)O2)[C@H](C)O1)C(=O)c1cccc(O)c1C3=O [Compound 7, cosmomycin D]

>  <test target>
HeLa human cervical carcinoma cell line

>  <pIC50>
6.96

$$$$

---

Catalogue of kcat readings, one per entry.
Test system: CytA
Test: Enzyme kinetics of CytA (formation of deglycosylation products, anaerobic)
Format: biochemical, Streptomyces sp. SCSIO 1666
Settings: substrate of CytA; 0.5 μM CytA, 20 μM NADH, anaerobic

>  <molecule>
CC[C@@]1(O)C[C@H](O[C@H]2C[C@H](N(C)C)[C@H](O[C@H]3C[C@H](O)[C@H](O[C@H]4CC[C@H](O)[C@H](C)O4)[C@H](C)O3)[C@H](C)O2)c2c(O)c3c(c(O)c2[C@H]1O[C@H]1C[C@H](N(C)C)[C@H](O[C@H]2C[C@H](O)[C@H](O[C@H]4CC[C@H](O)[C@H](C)O4)[C@H](C)O2)[C@H](C)O1)C(=O)c1cccc(O)c1C3=O

>  <test target>
CytA

>  <display unit>
s⁻¹

>  <kcat>
0.0132

$$$$
>  <molecule>
CC[C@@]1(O)C[C@H](O[C@H]2C[C@H](N(C)C)[C@@H](O[C@H]3C[C@H](O)[C@@H](O[C@H]4CC[C@H](O)[C@H](C)O4)[C@H](C)O3)[C@H](C)O2)c2c(O)c3c(c(O)c2[C@H]1O[C@H]1C[C@H](N(C)C)[C@@H](O[C@H]2CC[C@H](O[C@H]4CC[C@H](O)[C@H](C)O4)[C@H](C)O2)[C@H](C)O1)C(=O)c1cccc(O)c1C3=O

>  <test target>
CytA

>  <display unit>
s⁻¹

>  <kcat>
0.0118

$$$$
>  <molecule>
COc1cccc2c1C(=O)c1c(O)c3c(c(O)c1C2=O)C[C@@](O)(C(=O)CO)C[C@@H]3O[C@H]1C[C@H](N)[C@H](O)[C@H](C)O1 [Compound 23, doxorubicin, reference compound]

>  <test target>
CytA

>  <display unit>
s⁻¹

>  <kcat>
0.0102

$$$$
>  <molecule>
CC[C@@]1(O)C[C@H](O[C@H]2C[C@H](N(C)C)[C@H](O)[C@H](C)O2)c2c(O)c3c(c(O)c2[C@H]1C(=O)OC)C(=O)c1cccc(O)c1C3=O

>  <test target>
CytA

>  <display unit>
s⁻¹

>  <kcat>
0.0055

$$$$
>  <molecule>
COc1cccc2c1C(=O)c1c(O)c3c(c(O)c1C2=O)C[C@@](O)(C(C)=O)C[C@@H]3O[C@H]1C[C@H](N)[C@H](O)[C@H](C)O1 [Compound 22, daunorubicin, reference compound]

>  <test target>
CytA

>  <display unit>
s⁻¹

>  <kcat>
0.00967

$$$$
>  <molecule>
COc1cccc2c1C(=O)c1c(O)c3c(c(O)c1C2=O)C[C@@](O)(C(=O)CO)C[C@@H]3O[C@H]1C[C@H](N)[C@H](O[C@@H]2CCCCO2)[C@H](C)O1 [Compound 26, pirarubicin, reference compound]

>  <test target>
CytA

>  <display unit>
s⁻¹

>  <kcat>
0.0123

$$$$
>  <molecule>
COc1cccc2c1C(=O)c1c(O)c3c(c(O)c1C2=O)C[C@@](O)(C(=O)CO)C[C@@H]3O[C@H]1C[C@H](N)[C@@H](O)[C@H](C)O1 [Compound 25, epirubicin, reference compound]

>  <test target>
CytA

>  <display unit>
s⁻¹

>  <kcat>
0.00883

$$$$
